Data provenance: patent US20260258115A1

biological target: T1, RSV postfusion F (postF), subtype A (respiratory syncytial virus subtype A, UniProt P03420 26-513); assay: BLI
T1 construct: also called Postfusion subtype A; F deltaFP

binder	binding result
ADI-19469 (antibody, V domains shown, full-length IgG) VH: QVQLQESGPGLVKPSETLSLTCAVSGYSISSGYYWGWIRQPPGKGLEWIGSIYHSGSTYYNPSLKSRVTISVDTSKNQFSLKLSSVTAADTAVYYCARWTVMYYFDYWGQGTLVTVSS VL: EIVMTQSPATLSLSPGERATLSCRASQSVSSYLAWYQQKPGQAPRLLIYDASNRATGIPARFSGSGSGTDFTLTISSLEPEDFAVYYCQQRSNWPTFGGGTKLEIK	no binding
ADI-25559 (antibody, V domains shown, full-length IgG) VH: EVQLLESGGGLVKPGGSLRLSCAASGFTFSSYSMNWVRQAPGKGLEWVSSISSSSSYIYYADSVKGRFTISRDNAKNSLYLQMNSLRAEDTAVYYCARDAAAKYYFDYWGQGTLVTVSS VL: QPVLTQPPSVSGAPGQRVTISCTGSSSNIGAGYDVHWYQQLPGTAPKLLIYGNSNRPSGVPDRFSGSKSGTSASLAITGLQAEDEADYYCQSYDSSLSGKVFGTGTKLTVL	no binding
ADI-25478 (antibody, V domains shown, full-length IgG) VH: EVQLLESGGGLVKPGGSLRLSCAASGFTFSSYSMNWVRQAPGKGLEWVSSISSSSSYIYYADSVKGRFTISRDNAKNSLYLQMNSLRAEDTAVYYCARLDYSNYYYYMDVWGKGTTVTVSS VL: QPVLTQPPSVSGAPGQRVTISCTGSSSNIGAGYDVHWYQQLPGTAPKLLIYGNSNRPSGVPDRFSGSKSGTSASLAITGLQAEDEADYYCQSYDSSLSGYVFGTGTKLTVL	no binding
